Would you kindly list IC50 for each of these molecules?
target: GST-JAK2(808-1132) (Homo sapiens, UniProt O60674); construct: GST-JAK2(808-1132); purchased Invitrogen (Carlsbad, USA) #4288; experiment: EPK JAK-family kinases profiling assay (Caliper mobility shift), JAK2; format: biochemical; details: ATP 20 μM, 1.8 nM kinase
Sequence (O60674 808-1132): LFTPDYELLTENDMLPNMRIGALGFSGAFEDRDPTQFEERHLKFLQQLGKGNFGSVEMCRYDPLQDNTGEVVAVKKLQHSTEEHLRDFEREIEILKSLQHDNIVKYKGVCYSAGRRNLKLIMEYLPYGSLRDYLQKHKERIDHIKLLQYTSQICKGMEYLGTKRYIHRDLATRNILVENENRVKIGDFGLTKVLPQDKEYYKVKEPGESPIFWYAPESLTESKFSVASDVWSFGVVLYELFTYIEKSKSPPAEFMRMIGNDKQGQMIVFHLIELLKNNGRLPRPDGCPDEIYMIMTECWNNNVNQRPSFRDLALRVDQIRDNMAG
Enter your answer as a number in µM; do not include the unit.

Determine its reported IC50: `COCCOc1ccc(-c2cnc3cccc(-c4cc(F)c(CN5CCOCC5)c(F)c4)c3n2)cc1OC`
0.00705

Determine its reported IC50: `O=C(Cc1ccc(-c2cccc3ncc(-c4ccc(N5CCOCC5)cc4)nc23)cc1)N1CCOCC1`
0.03

Determine its reported IC50: `COc1cc(-c2cnc3cccc(-c4ccc(CN5CCOCC5)c(F)c4)c3n2)cc(OC)c1OC`
0.024

====

target: GST-JAK2(808-1132) (Homo sapiens, UniProt O60674); construct: GST-JAK2(808-1132); purchased Invitrogen (Carlsbad, USA) #4288; test: EPK JAK-family kinases profiling assay (Caliper mobility shift), JAK2; format: biochemical; details: ATP 20 μM, 1.8 nM kinase
valueType: IC50

Determine its reported IC50: `COCCOc1ccc(-c2cnc3cccc(-c4ccc(CN5CCS(=O)(=O)CC5)c(F)c4)c3n2)cc1OC`
< 3 nM

Determine its reported IC50: `Cc1c(-c2cnc3cccc(-c4cc(F)c(CN5CCOCC5)c(F)c4)c3n2)cnn1C1CCNCC1`
< 3 nM

Determine its reported IC50: `Cc1nn(C2CCNCC2)cc1-c1cnc2cccc(-c3cc(F)c(CN4CCOCC4)c(F)c3)c2n1`
< 3 nM
